test_name: small molecules captured by biotinylated probe aFST – biochemical, small-molecule microarray, fluorescence 635/667, stem cell growth factor project, primary screen (AID 1086);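 further: score merges 667 nm fluorescence with signal-to-noise of each printed compound spot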
test_parameters: higher = more signal

- molecule: "CC1CC/C=C\\[C@H]2OC34C=CCN(CCN5CCOCC5)C(=O)[C@H]3N(CCCO)C(=O)[C@@H]4C2C(=O)O1 (stereo not given in full)"
  composite z-score: -0.354
- molecule: "O=C1C[C@]2(c3ccc([N+](=O)[O-])cc3)C(=O)N(C3CC3)c3cc(CO)ccc3[C@H]2N1C1CCCCC1"
  composite z-score: -0.0927
- molecule: "CN(C)CCCNC(=O)[C@@H]1c2ccccc2C(=O)N(Cc2ccccc2C(F)(F)F)[C@H]1c1ccc(CO)cc1"
  composite z-score: -0.0464
- molecule: "CC(C)(C)N1CC=CC23O[C@@H]4/C=C\\CCCOC(=O)C4[C@H]2C(=O)N(CCCCCO)[C@@H]3C1=O (stereo not given in full)"
  composite z-score: -1.09
- molecule: "C=C1C(=O)C=C2CN(C(=O)c3ccccc3)[C@@](Cc3ccc(OC)cc3)(C(=O)OC)[C@@H]12"
  composite z-score: 0.924
- molecule: "CCCC=C(CCC)[C@@H](NC(=O)c1ccc(C(F)(F)F)cc1)c1ccc(C(F)(F)F)cc1"
  composite z-score: 1.04
- molecule: "COc1ccc(C(O)C2C=CC3C(=O)N(c4ccccc4)C(=O)C3N2Nc2ccc(C#N)cc2)cc1OCc1ccccc1 (stereo not given)"
  composite z-score: 1.09
- molecule: "C=C(COC)/C(=C/C[C@H](OC(C)=O)c1ccccc1OCCO)c1cc(C(=O)OC)ccc1OC"
  composite z-score: 0.318
- molecule: "CCOc1cc(C(O)C2C=CC3C(=O)N(c4ccccc4)C(=O)C3N2Nc2ccccc2F)ccc1O (stereo not given)"
  composite z-score: 1.51
- molecule: "C=CCC(OC(C)=O)[C@@H]1[C@@H](N(Cc2ccc(-c3cccc(C(F)(F)F)c3)o2)C(=O)c2ccc(-c3ccccc3)cc2)c2cc(OCCCO)ccc2N1C(=O)c1ccc2ccccc2c1 (stereo not given in full)"
  composite z-score: 0.543
- molecule: "COC(=O)[C@@]1(Cc2ccccc2)[C@H]2c3cc(C(=O)N(C)C)n(Cc4ccc(C(F)(F)F)nc4)c3C[C@H]2CN1C(=O)c1ccccc1"
  composite z-score: 1.74
- molecule: "CC(C)=C1C(=O)C(c2ccccc2)=C2CN3C(=O)N(CCc4ccccc4)C(=O)[C@]3(C)[C@H]21"
  composite z-score: 0.64
- molecule: "CN(C)CCCC[C@@H]1NC(=O)[C@H]2C[C@@H](C(=O)O)[C@@H](c3ccc(O)cc3)N2C1=O"
  composite z-score: 3.29
- molecule: "COCCOC(=O)N1C(=O)[C@@]2(c3cc(C#CCNC(N)=O)ccc31)[C@H](C(=O)Nc1nc3ccccc3s1)[C@H]1C(=O)O[C@H](c3ccccc3)[C@H](c3ccccc3)N1[C@@H]2c1ccccc1OCCO"
  composite z-score: 0.71
- molecule: "CCCC#C[Si](O[C@H](CC)c1cn(Cc2ccccc2)nn1)(C(C)C)C(C)C"
  composite z-score: 0.278

* * *

test_name: changes in parasitized red cell lysis, either direction – P. falciparum Indochina, OD700, 3 h, PSAC antagonist project, primary screen (AID 1156)
test_parameters: P. falciparum-infected erythrocytes, osmotic lysis, higher = more signal, called active from +8 up or from −8 down

- compound: "O=C1O[C@H](c2ccccc2)[C@H](c2ccccc2)N2[C@H]1[C@@H](C(=O)O)[C@]1(C(=O)Nc3ccc(C#CCCO)cc31)[C@H]2c1ccc(OCCO)cc1"
  z-score: 0.232
- compound: "C=C(CCCC)/C(=C/C[C@H](OC(C)=O)c1cccc(OCCO)c1)c1cnc2ccccc2c1"
  z-score: 1.94
- compound: "CC(C)(C)OC(=O)CC[C@]1(C(=O)NCC(O)CO)N=C(c2ccc(OCCCO)cc2)O[C@H]1c1ccccc1N=[N+]=[N-] (some centres not stated)"
  z-score: 1.38
- compound: "CCCC#C[Si](O[C@H](CC)c1cn(Cc2ccccc2)nn1)(C(C)C)C(C)C"
  z-score: -0.929
- compound: "CC(C)[Si](C#CCCc1ccccc1)(O[C@H](c1ccccc1)c1cn(Cc2ccccc2)nn1)C(C)C"
  z-score: -0.329
- compound: "O=C1O[C@@H](c2ccccc2)[C@@H](c2ccccc2)N2[C@@H](c3ccc(OCCO)cc3)[C@]3(C(=O)Nc4ccc(C#CCCO)cc43)[C@@H](C(=O)O)[C@H]12"
  z-score: 0.88
- compound: "CN(C)CCCNC(=O)[C@@]1(Cc2ccccc2I)c2ccccc2C(=O)N(C2CCCCC2)[C@H]1c1ccc(CO)cc1"
  z-score: -2.34

* * *

test_name: viability profiling in MM1S myeloma cells – cell-based, resazurin fluorescence, basal, 24 h, PK04 Diversity Set, profiling panel (AID 1174);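 further: MM1S multiple myeloma cell line; test concentration not given here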
test_parameters: higher = more signal, called active from +8 up or from −8 down
# cutoff -0.8 applies to z-score; >= gives Criterion met, < gives Criterion not met

- compound: "COC(=O)[C@@]1(Cc2ccc(OC)cc2)[C@H]2c3cc(C(=O)N4CCCC4)n(Cc4ccc(C(F)(F)F)nc4)c3C[C@H]2CN1C(=O)c1ccccc1"
  label: "Criterion not met"
- compound: "C=C(CCCC)/C(=C/C[C@H](OC(=O)c1ccncc1)c1ccc(OCCO)cc1)c1cnc2ccccc2c1"
  label: "Criterion met"
- compound: "C=CC[C@@]1(C(=O)OC)N=C(c2ccc(OCCCO)cc2)O[C@@H]1c1ccccc1N=[N+]=[N-]"
  label: "Criterion met"
- compound: "C=C(COC)C(=O)CC[C@@H](OC(C)=O)c1ccccc1OCCO"
  label: "Criterion not met"
- compound: "CC1CC/C=C\\[C@H]2OC34C=CCN(c5ccc(Cl)cc5)C(=O)[C@H]3N(CCCCCCO)C(=O)[C@]4(C)C2C(=O)O1 (stereo not given in full)"
  label: "Criterion met"
- compound: "CC(C)(C)OC(=O)CC[C@]1(C(=O)NCC(O)CO)N=C(c2ccc(OCCCO)cc2)O[C@H]1c1ccccc1N=[N+]=[N-] (stereo not given in full)"
  label: "Criterion not met"
- compound: "COC(=O)[C@]1(Cc2ccccc2)N=C(c2ccc(OCCCO)cc2)O[C@@H]1c1ccccc1CN=[N+]=[N-]"
  label: "Criterion not met"
- compound: "COc1ccc([Si](C)(C)[C@@H]2[C@@H](CC(=O)N(CCO)Cc3ccccc3)O[C@]3(C(=O)N(Cc4ccc(N5C(=O)c6cccc7cccc5c67)cc4)c4ccccc43)[C@H]2C)cc1"
  label: "Criterion not met"
- compound: "CN1C(=O)C2C(C1=O)C1C=C(CCCO)C2C(C2CC2)N1Cc1cccc(OC(F)(F)F)c1 (stereo not given)"
  label: "Criterion met"
- compound: "COCCCNC(=O)[C@@]1(Sc2ccc(C)cc2)CC(=O)N(Cc2ccccc2C(F)(F)F)[C@@H]1c1ccc(CO)cc1I"
  label: "Criterion not met"
- compound: "COc1ccc(NN2C(C(O)c3ccc(I)cc3)C=CC3C(=O)N(C4CCCCC4)C(=O)C32)cc1 (stereo not given)"
  label: "Criterion met"
- compound: "COc1ccc(C(=O)Nc2cccc(CN3C(=O)[C@]4(O[C@H](CC(=O)N5Cc6ccccc6C[C@H]5CO)[C@@H]([Si](C)(C)c5ccc(OC)cc5)[C@@H]4C)c4ccccc43)c2)cc1"
  label: "Criterion not met"
- compound: "Cc1ccc(F)cc1S(=O)(=O)N[C@H]1CCN(Cc2ccc(OC(C)C)cc2)C1"
  label: "Criterion not met"
- compound: "COc1ccc(C(O)C2C=CC3C(=O)N(c4ccccc4)C(=O)C3N2Nc2ccc(C#N)cc2)cc1OCc1ccccc1 (stereo not given)"
  label: "Criterion not met"
- compound: "CC1CC/C=C\\[C@H]2OC34C=CCN(c5ccc6ccccc6c5)C(=O)[C@H]3N(C(C)CO)C(=O)[C@@H]4C2C(=O)O1 (stereo not given in full)"
  label: "Criterion met"

* * *

test_name: compound effects on lung adenocarcinoma cell viability – A549, calcein-AM fluorescence, 48 h, basal, profiling panel (AID 1162); further: test concentration not given here
test_parameters: higher = more signal
Each entry below carries its reported z-score.

- compound: "COC(=O)C(CC#Cc1ccc2c(c1)[C@]1(C(=O)N2)[C@H](c2ccc(OCCO)cc2)N2[C@H](c3ccccc3)[C@H](c3ccccc3)OC(=O)[C@H]2[C@@H]1C(=O)N1CCCCCCC1)C(=O)OC"
  z-score: 0.996
- compound: "COc1ccc([Si](C)(C)[C@H]2[C@H](CC(=O)N3CCC[C@H]3CO)O[C@@]3(C(=O)N(Cc4ccc(N5CCCCC5=O)cc4)c4ccccc43)[C@@H]2C)cc1"
  z-score: -0.288
- compound: "CCCC=C(CCC)[C@@H](NC(=O)OCC(C)C)c1ccc(C(=O)OC)cc1"
  z-score: 0.732
- compound: "O=C1C=C(c2ccccc2)C(=O)C2=C1CC([C@H]1Oc3ccccc3S(=O)(=O)N3CCC[C@@H]13)=CC2"
  z-score: -0.653
- compound: "CCCCC(=C=CC[C@H](O)c1ccc(CO)o1)CCO"
  z-score: -0.231
- compound: "COC(=O)C(CC#Cc1ccc2c(c1)[C@]1(C(=O)N2)[C@H](C(=O)N2CCc3cc(OC)c(OC)cc3C2)[C@H]2C(=O)O[C@H](c3ccccc3)[C@H](c3ccccc3)N2[C@@H]1c1ccccc1OCCO)C(=O)OC"
  z-score: -0.179
- compound: "O=C(NCc1ccccc1)[C@@H]1c2ccccc2C(=O)N(Cc2cc(C(F)(F)F)cc(C(F)(F)F)c2)[C@H]1c1ccc(CO)cc1"
  z-score: -0.108
- compound: "COCCOC(=O)N1C(=O)[C@@]2(c3cc(C#CCC(C(=O)OC)C(=O)OC)ccc31)[C@H](C(=O)Nc1nc3ccccc3s1)[C@H]1C(=O)O[C@H](c3ccccc3)[C@H](c3ccccc3)N1[C@@H]2c1ccc(OCCO)cc1"
  z-score: 0.4
- compound: "COc1ccc([Si](C)(C)[C@H]2[C@H](CC(=O)N3Cc4ccccc4C[C@H]3CO)O[C@@]3(C(=O)N(C)c4c(Br)cc(C)cc43)[C@@H]2C)cc1"
  z-score: -2.66
- compound: "O=C1[C@@H]2[C@@H](CC(COc3ccccc3)=C([C@H](O)CCc3ccccc3)[C@@H]2CO)C(=O)N1Cc1ccccc1"
  z-score: -0.137
- compound: "C=CCOC(=O)[C@H]1[C@@H]2C(=O)O[C@@H](c3ccccc3)[C@@H](c3ccccc3)N2[C@@H](c2ccc(OCCOC(=O)[C@@H]3C[C@@H]4C(=O)N[C@@H](CCCCNC(C)=O)C(=O)N4[C@@H]3c3cccc(OCCO)c3)cc2)[C@]12C(=O)Nc1ccccc12"
  z-score: -0.389
- compound: "CC1CC/C=C\\[C@H]2OC34C=CCN(C(C)(C)C)C(=O)[C@H]3N(CCCO)C(=O)[C@@H]4C2C(=O)O1 (some centres not stated)"
  z-score: -0.459

Reference source: PubChem BioAssay
